Values compiled from patent US11766419B2.

Examples of molecules with documented pIC50 follow.
# Study Target: sEH (Homo sapiens)
# Sequence (P34913 whole entry, species assumed): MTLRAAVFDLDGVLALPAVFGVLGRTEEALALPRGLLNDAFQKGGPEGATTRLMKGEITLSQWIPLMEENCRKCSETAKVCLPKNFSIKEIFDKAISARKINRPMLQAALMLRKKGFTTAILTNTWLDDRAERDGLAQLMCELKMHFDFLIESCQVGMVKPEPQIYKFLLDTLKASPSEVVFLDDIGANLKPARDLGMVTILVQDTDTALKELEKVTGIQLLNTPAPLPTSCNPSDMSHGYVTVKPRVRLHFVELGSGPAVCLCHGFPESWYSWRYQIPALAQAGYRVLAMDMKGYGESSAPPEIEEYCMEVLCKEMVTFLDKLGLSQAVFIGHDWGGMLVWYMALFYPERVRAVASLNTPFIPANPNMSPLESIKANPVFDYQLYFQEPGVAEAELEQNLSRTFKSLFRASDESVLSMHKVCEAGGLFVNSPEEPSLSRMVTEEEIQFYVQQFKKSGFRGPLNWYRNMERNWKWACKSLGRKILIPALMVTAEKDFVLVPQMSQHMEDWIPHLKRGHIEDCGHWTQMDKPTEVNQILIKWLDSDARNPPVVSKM
# Method Description: In vitro sEH activity assay (PHOME substrate, fluorescence)
# Format: biochemical
# Conditions: sEH, PHOME substrate
pIC50: −log10 of the molar value.

>  <Molecule>
CCN(CCCCOC(=O)c1ccc(OC)c(OC)c1)C(C)Cc1ccc(OC)cc1 (centres unmarked)

>  <pIC50>
8.41

$$$$
>  <Molecule>
C[C@H](CS)C(=O)N1CCC[C@H]1C(=O)O

>  <pIC50>
6.16

$$$$
